Reference for the values: patent US20240252596A1

- test description: Parameters of liquid carriers (density, viscosity, vapor pressure)
- details: liquid carrier
measure: Density

Returns the measured Density for the input compound. Input: CC(=O)OCC(COC(C)=O)OC(C)=O [Triacetin]
1.16 g/mL

Field request: Density | item: CC(O)CO (stereo not shown) [Propylene glycol (PG), Propylene glycol]
1.03 g/mL

Which Density is reported for this compound? C[S+](C)[O-] [Dimethyl sulfoxide (DMSO), Dimethyl sulfoxide]
1.09 g/mL

---

- test description: Syringe force measurements of liquid carriers alone after 48 h
- Type: physicochemical
- details: media alone in syringe, after 48 h at ambient temperature
measure: Break loose (N), n = 2
Kindly write the number and append the unit.

compound="O=C(OCc1ccccc1)c1ccccc1 [Benzyl benzoate]" measure="Break loose (N), n = 2" result="5.7 N"
compound="OCc1ccccc1 [Benzyl Alcohol (BA), Benzyl Alcohol]" measure="Break loose (N), n = 2" result="4.8 N"

Dear colleague, I am looking for the recorded Break loose (N), n = 2 of the following compound: CC(=O)OCC(COC(C)=O)OC(C)=O [Triacetin]
8.1 N

# query: Break loose (N), n = 2 of entry CCCCCCCC/C=C\CCCCCCCC(=O)OCC [ethyl oleate]
4.2 N

---

- test description: Parameters of liquid carriers (density, viscosity, vapor pressure)
- details: liquid carrier
One threshold, 10 Pa, splits the recorded Vapor pressure values: lower ones are 1, equal or higher ones are 0.

Reference set, count: 4
compound="C[S+](C)[O-] [Dimethyl sulfoxide (DMSO), Dimethyl sulfoxide]" assigned_label=0
compound="CC(O)CO (centres unmarked)" assigned_label=0
compound=CC(=O)OCC(COC(C)=O)OC(C)=O assigned_label=1
compound=OCc1ccccc1 assigned_label=0

# input for lookup
For CN1CCCC1=O , is the recorded Vapor pressure below the cut-off of 10 Pa?
0

---

- test description: Liquid carrier studies: suspension performance of BSA/MoNi (5%) microparticles at 460 mg/mL
- details: BSA/MoNi (5%) microparticles dispersed in the media
measure: Additional comments (consistency on dispersion, stability of suspension)

compound="CN1CCCC1=O [N-methyl-2-pyrrolidone (NMP), N-methyl-2-pyrrolidone]" result="Forms very low viscosity"
compound="OCc1ccccc1 [Benzyl Alcohol (BA), Benzyl Alcohol]" result="Forms very low viscosity"

---

- test description: Liquid carrier studies: suspension performance of BSA/MoNi (5%) microparticles at 460 mg/mL
- details: BSA/MoNi (5%) microparticles dispersed at 460 mg/mL in the media
measure: Suspension Performance

compound="O=C(OCc1ccccc1)c1ccccc1 [Benzyl benzoate]" result=+
compound="CN1CCCC1=O [N-methyl-2-pyrrolidone (NMP), N-methyl-2-pyrrolidone]" result=+/−
compound="OCc1ccccc1 [Benzyl Alcohol (BA), Benzyl Alcohol]" result=+
compound="CC(=O)OCC(COC(C)=O)OC(C)=O [Triacetin]" result=++

---

- test description: Parameters of liquid carriers (density, viscosity, vapor pressure)
- details: liquid carrier, 25 C.
measure: Viscosity (@25 C.)

Study these solved cases before continuing.
compound=CCO measure="Viscosity (@25 C.)" result=1.07
compound="CC(O)CO (stereo not shown)" measure="Viscosity (@25 C.)" result=48.6
compound=CC(=O)OCC(COC(C)=O)OC(C)=O measure="Viscosity (@25 C.)" result=23

Sample CN1CCCC1=O — what was its Viscosity (@25 C.)?
1.89

Need Viscosity (@25 C.) of O=C(OCc1ccccc1)c1ccccc1 [Benzyl benzoate] , thanks.
8.29

Which Viscosity (@25 C.) is listed for OCc1ccccc1 ?
5.4

Quick check: Viscosity (@25 C.) of C[S+](C)[O-] [Dimethyl sulfoxide (DMSO), Dimethyl sulfoxide] ?
2.0
